- target_or_test_system: T1, AFP158/HLA-A*02:01 complex (human)
- T1 construct: flowed as analyte in SPR
- test_summary: SPR, crude scFv captured, pMHC analyte;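 note: complex injected at several concentrations over the chip, association phase then running buffer for dissociation, KD derived from on- and off-rates computed from both curves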
outcome_measure: Kd (nM)

binder="AS170036 VL1VH1-56N98F108D (scFv, also called 50-AS170036 VL1VH1-56N98F108D) scFv: QSALTQPRSVSGSPGQSVTISCAGTSSDVGSENYVSWYQQHPGKAPKLMIYQVNKRASGVPDRFSGSKSGNTASLTISGLQAEDEADYYCASYRSSDFNIVFGGGTKLTVLGGGGSGGGGSGGGGSEVQLVESGGGLVQPGGSLRLSCAASGFTFSSYAMSWVRQAPGKGLEWVSTINSGTNSPYYADSVKGRFTISRDNSKNTLYLQMNSLRAEDTAVYYCAKNFFDGSWFLDPPAMDYWGQGTLVTVSSHHHHHH" assay_result=6.2
binder="AS170036 VL1VH1-56N98F108A (scFv, also called 49-AS170036 VL1VH1-56N98F108A) scFv: QSALTQPRSVSGSPGQSVTISCAGTSSDVGSENYVSWYQQHPGKAPKLMIYQVNKRASGVPDRFSGSKSGNTASLTISGLQAEDEADYYCASYRSSDFNIVFGGGTKLTVLGGGGSGGGGSGGGGSEVQLVESGGGLVQPGGSLRLSCAASGFTFSSYAMSWVRQAPGKGLEWVSTINSGTNSPYYADSVKGRFTISRDNSKNTLYLQMNSLRAEDTAVYYCAKNFFDGSWFLAPPAMDYWGQGTLVTVSSHHHHHH" assay_result=5.4

Reference source: patent US20240279318A1
